Data provenance: patent US20230067676A1

procedure details: physchem
experimental parameters: FaSSIF pH 6.5 + 1% PVPVA, pH 6.5, aqueous with cosolvent or surfactant or cyclodextrin, thermodynamic from solid
observed property: solubility kinetic at 24 h (µg/mL)

In [3]: df
Out[3]:
                                   compound  measured
0  FC(F)(F)Oc1ccc(Nc2ccc3cccc(Cl)c3n2)cc1 [ABX464 crystalline Form I]        72

---

procedure details: Two-steps Dissolution/Precipitation in vitro Human Fasted model (gastric then intestinal compartment)
Format: physicochemical
experimental parameters: 37 °C, pH 1.2, fassgf or other biorelevant, thermodynamic from solid, gastric compartment, vial G 15 min; FaSSGF pH 1.2 + 1% PVPVA; 37° C.; target about 4 mg/ml; read-out: Soluble fraction
observed property: solubility at 15 min

>>> df
                                   compound     observed_property  measured
0  FC(F)(F)Oc1ccc(Nc2ccc3cccc(Cl)c3n2)cc1 [ABX464 crystalline Form I]  solubility at 15 min  60 µg/mL
